src = ChEMBL document CHEMBL2177026

assay: Drug uptake in rat brain at 5 mg/kg, sc measured after 5 hrs by LC/MS/MS analysis; assay type: ADME, organism-based; parameters: dose 5 mg/kg, route subcutaneous; settings: read-out: Drug uptake
Measured Quantity: concentration at 5 h (nM)
Quick reminder: number only, in nM, skip the unit.

Param item = COc1ccc(-c2nsc(C)c2C(=O)/N=C(\N)NCc2cc(C)c(NC(=O)CN3CCC3)c(Cl)c2)cc1 ; retrieve measured concentration at 5 h.
89

###

IC50 for assorted compounds
biological target: Beta-secretase 1 (Homo sapiens); test: Inhibition of BACE1 in human KBV1 cells expressing APP 751 Swedish mutant assessed as inhibition of amyloid beta (1 to 40) production after overnight incubation by ELISA in absence of tariquidar; format: cell-based
Sequence (P56817 whole entry): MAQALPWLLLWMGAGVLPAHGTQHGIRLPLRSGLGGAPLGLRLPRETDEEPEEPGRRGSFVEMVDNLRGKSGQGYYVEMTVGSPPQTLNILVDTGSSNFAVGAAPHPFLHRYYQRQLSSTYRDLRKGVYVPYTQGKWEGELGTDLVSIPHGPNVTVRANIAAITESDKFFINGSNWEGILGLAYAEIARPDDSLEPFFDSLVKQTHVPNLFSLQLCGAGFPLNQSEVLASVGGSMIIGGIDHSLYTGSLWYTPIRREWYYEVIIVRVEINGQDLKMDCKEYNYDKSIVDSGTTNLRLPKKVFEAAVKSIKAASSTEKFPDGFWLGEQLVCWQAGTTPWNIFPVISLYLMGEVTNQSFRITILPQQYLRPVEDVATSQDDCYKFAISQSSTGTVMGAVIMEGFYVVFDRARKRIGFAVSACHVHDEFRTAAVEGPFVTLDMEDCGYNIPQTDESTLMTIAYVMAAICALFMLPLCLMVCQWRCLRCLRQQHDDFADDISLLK
The figure you give is taken to be in µM; do not add the unit.

Form entry - test system: Beta-secretase 1 (Homo sapiens); read-out: IC50; compound: COc1ccc(-c2noc(C)c2C(=O)/N=C(\N)NCc2cc(Cl)cc(Cl)c2)cc1
3.3

Field: IC50 (Beta-secretase 1 (Homo sapiens)). Entry: COc1ccc(-c2nsc(C)c2C(=O)/N=C(\N)NCc2cc(C)c(NC(=O)CN3CCC3)c(Cl)c2)cc1
0.18

Which IC50 is reported with Beta-secretase 1 (Homo sapiens) for this entry: COc1ccc(-c2nsc(C)c2C(=O)/N=C(/N)NCc2cc(Cl)c(N)c(Cl)c2)cc1 ?
1.7

Any idea what IC50 came out for COc1ccc(-c2nsc(C)c2C(=O)NC(N)=NCc2cc(Cl)c(NC(=O)CN3CCC3)c(Cl)c2)cc1 on Beta-secretase 1 (Homo sapiens)?
0.18
